- measurement description: Thermodynamic solubility in pH 7.4 buffer
- Format: physicochemical
- run parameters: read-out: Therm_solubility
reported metric: solubility thermodynamic (mM)
Return type: number; implicit unit mM.

Q: Any idea what solubility thermodynamic was measured for Cc1cn([C@@H](C)[C@]2(F)CCNC2)c2nc(C(N)=O)cc(Cl)c12 (stereo in doubt) ?
Ans: 6.8

* * *

- measurement description: Cmax in rat at 3 mg/kg, iv
- Assay type: ADME, organism-based
- Parameters: route intravenous, dose 3 mg/kg
- run parameters: in vivo
reported metric: Cmax

Q: Any idea what Cmax was measured for Cc1cn([C@@H](C)[C@]2(F)CCNC2)c2nc(C(N)=O)cc(Cl)c12 (stereo in doubt) ?
Ans: 174 ng/mL
